- Assay name: small-molecule microarray binders of probe aEGFR, primary screen, biochemical, biotinylated probe, 635/667 nm fluorescence (AID 1097);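 further: probe is a biotinylated anti-EGFR antibody binding compounds printed on slides; score combines fluorescence near 667 nm and signal to noise of each spot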
- Run conditions: higher = more signal
Metric: composite z-score
One number for each entry.

Recorded results for 5 molecules are shown here.
CC(C)CON=C1C[C@@H](O)[C@@H](O)[C@@H]2[C@@H]3C(=O)N(Cc4ccc5c(c4)OCO5)C(=O)[C@@H]3CC[C@H]12; -0.0697
CCOC(=O)[C@H](CC(C)C)NC(=O)CCC1CC(OC(=O)NCc2cccc3ccccc23)CC2(CCCC(COC(=O)NCCOc3ccccc3)O2)O1 (stereo partly specified); -0.171
CC(C)CON=C1C[C@@H](O)[C@@H](O)[C@@H]2[C@@H]3C(=O)N(c4ccc(F)cc4F)C(=O)[C@@H]3CC[C@H]12; -0.0512
CCc1cc2c(nc1CC)CCN(CCC(C)=NO[C@H](C)c1cn([C@H](CO)Cc3ccccc3)nn1)C2; -0.142
O=C1C[C@@H](O)[C@@H](O)[C@@H]2[C@@H]3C(=O)N(C[C@@H]4CCCO4)C(=O)[C@@H]3CC[C@@H]12; 0.091

Give composite z-score for the following molecule: CCOC(=O)[C@H](CC(C)C)NC(=O)CCC1CC(OC(=O)NCCc2ccc(F)cc2)CC2(CCCC(COC(=O)NCC(c3ccccc3)c3ccccc3)O2)O1 (stereo partly specified)
-0.127
